Data provenance: PubChem BioAssay (NCI)

# Test system: ACHN renal
# protocol: NCI tumour cell line growth inhibition, 48 h
readout_kind: TGI

C/C(=C(\c1ccc(OCCN2CCCCCC2)cc1)c1ccc(OC(=O)Cc2ccccc2)cc1)c1ccc(Cl)cc1: 4.93 µM
COC(=O)/C=C\C(C#N)(C#N)N=Cc1ccc(Br)s1: 6.1 µM
CCOc1ccc(NC(=O)C2=C(C)NC(C)=C(C(=O)Nc3ccc(OCC)cc3)C2c2ccccc2)cc1: > 100 µM
O=C(Oc1ccc(Cl)cc1[N+](=O)[O-])c1ccccc1: > 100 µM
COC(=O)/C=C(/OC)[C@H](C)[C@H](/C=C/c1csc(-c2csc(C(C)C)n2)n1)OC: > 100 µM
O=c1oc2ccc(-n3c(=O)c4ccccc4c4ccccc4c3=O)cc2c2ccccc12: > 100 µM
N#C/C(=C/Sc1ccccc1)C(=O)O: > 100 µM
Cc1ccc(/C=C2\Cc3cccc(C)c3C2=O)c(C(=O)O)c1: 88.1 µM
O=C(Nc1ccc(Cl)c(Cl)c1)N1N=C2c3ccccc3CCC2C1c1ccc(Cl)cc1 (stereo not given): > 100 µM
C=C(CN1CCN(c2cccc(C(F)(F)F)n2)CC1)c1ccc(C(=S)Nc2ccccc2N)cc1: > 100 µM

* * *

# Tested on: HCC-2998 colon
# protocol: NCI tumour cell line growth inhibition, 48 h
Listed here: items and their measured TGI.
readout_kind: TGI

O=C(/C=C/c1ccccc1)N1CCCCC1: > 100 µM
COc1ccc(-c2nc(N3CCN(C(=O)C4CCCCC4)CC3)c3c4c(sc3n2)CCCC4)cc1: > 100 µM
CC/C(=C(/c1ccc(O)cc1)c1ccc(OCCN2CCCCC2)cc1)c1ccc(OC)cc1: 9.13 µM
CN(Cc1ccccc1)C(=NC#N)N(C)Cc1ccccc1: > 100 µM
CC(=O)N1CC(=O)N2C(=O)/C(=C/c3ccc(Cl)cc3)N=C12: > 100 µM
COc1ccc(OC)c(CC(C)N)c1 (stereo unspecified): > 100 µM
S=c1nc(Cl)cc2[nH]c(Cl)cn12: > 100 µM
CC[C@@H]1C[C@H]2CC3c4[nH]c5ccc(O)cc5c4CCN(C2)C31: > 100 µM
O=C(NCc1ccncc1)C12CC3CC(C1)CC(c1ccc(Cl)cc1)(C3)C2: 29.4 µM
Brc1cc2c(cc1C1SCCS1)OCO2: > 100 µM
O=C1CC(O)(c2ccccc2)C(c2ccccc2)=C1c1ccccc1 (stereo unspecified): > 100 µM

* * *

# System: U251 CNS
Labels: active, inactive

O=C(/C(=C/c1ccc([N+](=O)[O-])cc1)SCc1ccc(F)cc1)c1ccc(Cl)cc1: inactive
C[C@H](CCCNCCCNCCCN)[C@H]1CC[C@H]2[C@@H]3[C@H](OCCCN)C[C@H]4C[C@H](OCCCN)CC[C@]4(C)[C@H]3C[C@H](OCCCN)[C@]12C: inactive
COc1cc(/C=C/C(=O)c2ccc(NC(=O)CSc3nnc(-c4cc(OC)c(OC)c(OC)c4)n3-c3ccccc3)cc2)cc(OC)c1OC: inactive
Cc1cc(Oc2ccc3nc(COc4ccc(CC5SC(=O)NC5=O)cc4)n(C)c3c2)cc(C)c1N (stereo not drawn): inactive
COc1cc(-c2nn(-c3cccc(NC(=O)c4ccc(N5CCOCC5)c(C(F)(F)F)c4)c3)cc2-c2ccncc2)ccc1Cl: active
N#CC1=C(N)NC(=S)NC12Nc1ccccc1N2: inactive
CCCCCCc1nc2nc(Cl)c(Cl)nc2[nH]1: inactive
C/C(=C\COc1c2c(cc3c1CCO3)OC1(C=C2)OC(CC/C(C)=C/COc2c3ccoc3cc3oc(=O)ccc23)C(C)(C)O1)CCC(O)C(C)(C)O (stereo not drawn): inactive
